# target_or_test_system: Protein RecA (Mycobacterium tuberculosis, UniProt P9WHJ3)
# assay_procedure: Fluorescence Cell-Free Homogeneous Dose Retest to Identify Inhibitors of RecA-Intein Splicing Activity. [Related pubchem assays (depositor defined):AID2097, AID2223, AID489010, AID492950]
# Type: functional
Activity calls are given as the source filed them. No stated cut-off is given here; in the data, actives have a measured EC50 and inactives only a lower limit.
property_name: EC50

O=C1NC(=S)N(C2CCCCC2)C(=O)/C1=C/NNC(=O)c1ccccc1O : 4.6 µM (active)
CCOC(=O)/C=c1\s/c(=C(\C#N)C(N)=O)n(-c2ccccc2)c1=O : > 380 µM (inconclusive)
Cc1n[nH]c2c1C1(CCN(C(=O)c3ccccc3)CC1)C(C#N)=C(N)O2 : 1.3 µM (active)
CCCc1n[nH]c2c1C(c1ccc(OC)cc1OC)C(C#N)=C(N)O2 (stereo not given) : 4.07 µM (active)
CCCCOC(=O)CNc1nnc(SCC(=O)OCC)nc1O : 4.56 µM (active)
COc1cccc(-n2nc(C#N)c(Cl)cc2=O)c1 : 4.38 µM (active)
COc1cc(/C=C2/C(=O)N(c3ccc(Br)cc3)N=C2C)cc(OC)c1OC : 12.4 µM (active)
COc1ccc(-c2cc(=O)n(CCC#N)[nH]2)cc1 : 1.02 µM (active)

Item under review: Oc1ccc(Nc2nc(-c3ccc(O)cc3)cs2)cc1 . Reported EC50?
43.8 µM (active)

Item under review: O=C(NC1(O)C(=O)c2ccccc2C1=O)c1c(Cl)cccc1Cl . Reported EC50?
28.6 µM (active)

Item under review: FC(F)(F)c1nnc(-c2ccccc2)nc1Sc1ccccc1 . Reported EC50?
9.56 µM (active)

From: ChEMBL document CHEMBL1201862
